Each recorded value in this set is attributed to patent US20220289698A1.

IC50 for assorted molecules
Target: human ATGL (Homo sapiens, UniProt Q96AD5)
Construct: made in house; host or cells: Expi cells (lysate, not purified)
Sequence (Q96AD5 whole entry): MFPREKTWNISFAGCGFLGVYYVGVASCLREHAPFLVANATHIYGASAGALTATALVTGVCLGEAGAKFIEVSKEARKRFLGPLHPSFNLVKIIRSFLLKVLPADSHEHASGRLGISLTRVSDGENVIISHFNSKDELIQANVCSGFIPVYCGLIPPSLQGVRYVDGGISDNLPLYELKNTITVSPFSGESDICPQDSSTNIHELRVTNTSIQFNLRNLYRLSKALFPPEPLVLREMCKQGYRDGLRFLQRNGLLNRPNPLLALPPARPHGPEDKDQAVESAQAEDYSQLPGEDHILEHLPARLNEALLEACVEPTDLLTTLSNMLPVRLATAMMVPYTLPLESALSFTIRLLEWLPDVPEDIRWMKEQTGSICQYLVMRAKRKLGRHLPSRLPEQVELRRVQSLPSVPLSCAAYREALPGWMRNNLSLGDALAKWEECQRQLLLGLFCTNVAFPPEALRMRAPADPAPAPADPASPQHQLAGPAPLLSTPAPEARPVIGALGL
Experiment: TG hydrolase activity, Expi cell lysates expressing human ATGL + CGI-58, radiolabelled triolein
Assay type: biochemical
Settings: values of text and figure legend; read-out: IC50 on human ATGL (hATGL)
MEASURED_ENDPOINT: IC50

- MOLECULE: "CCOC(=O)c1cn(-c2ccc(OCC)cc2)cn1 [AM-30, reference compound]"
  TARGET_OR_TEST_SYSTEM: "human ATGL (Homo sapiens, UniProt Q96AD5)"
  ENDPOINT_RESULT: "≥ 200 µM"
- MOLECULE: "CCOC(=O)c1csc(-c2ccc(OCC)cc2)n1 [Example 101]"
  TARGET_OR_TEST_SYSTEM: "human ATGL (Homo sapiens, UniProt Q96AD5)"
  ENDPOINT_RESULT: "2.5 µM"
- MOLECULE: "CCOc1ccc(-c2ccc(C)c(C(=O)OC(C)C)n2)cc1 [NG-469, reference compound]"
  TARGET_OR_TEST_SYSTEM: "human ATGL (Homo sapiens, UniProt Q96AD5)"
  ENDPOINT_RESULT: "> 200 µM"
- MOLECULE: "CCOC(=O)c1cnc(-c2ccc(OCC)cc2)s1 [AM-52, reference compound]"
  TARGET_OR_TEST_SYSTEM: "human ATGL (Homo sapiens, UniProt Q96AD5)"
  ENDPOINT_RESULT: "> 200 µM"
- MOLECULE: "CCOC(=O)c1cc(-c2ccc(OCC)cc2)ns1 [AMU-27, reference compound]"
  TARGET_OR_TEST_SYSTEM: "human ATGL (Homo sapiens, UniProt Q96AD5)"
  ENDPOINT_RESULT: "≥ 200 µM"
- MOLECULE: "CN(C)C(=O)Nc1cccc(-c2ccc(N(C)C)cc2)c1 [atglistatin, reference compound]"
  TARGET_OR_TEST_SYSTEM: "human ATGL (Homo sapiens, UniProt Q96AD5)"
  ENDPOINT_RESULT: "> 200 µM"
- MOLECULE: "CCOC(=O)c1cc(-c2ccc(OCC)cc2)no1 [AMU-4-245, reference compound]"
  TARGET_OR_TEST_SYSTEM: "human ATGL (Homo sapiens, UniProt Q96AD5)"
  ENDPOINT_RESULT: "≥ 200 µM"
- MOLECULE: "CCOc1ccc(-c2cc(C)cc(C(=O)OC(C)C)n2)cc1 [Example 20]"
  TARGET_OR_TEST_SYSTEM: "human ATGL (Homo sapiens, UniProt Q96AD5)"
  ENDPOINT_RESULT: "4 µM"

----------
Target: murine ATGL (Mus musculus)
Construct: made in house; host or cells: Expi cells (lysate)
Assay: TG hydrolase activity, Expi lysates expressing mouse ATGL + CGI-58, radiolabelled triolein
Type: biochemical
Details: 50 μM compound; Example 237; read-out: Inhibition of murine ATGL at 50 μM − mean [%]
inhibition at 50 µM for assorted compounds

- COMPOUND: "COCCOCCOc1ccc(-c2cccc(C(=O)OC(C)C)n2)cc1 [Example 15]"
  TARGET_OR_TEST_SYSTEM: "murine ATGL (Mus musculus)"
  UNITS_LABEL: "%"
  inhibition at 50 µM: 0
- COMPOUND: "CCOc1ccc(-c2cc(OC)cc(C(=O)OC(C)C)n2)cc1 [Example 35]"
  TARGET_OR_TEST_SYSTEM: "murine ATGL (Mus musculus)"
  UNITS_LABEL: "%"
  inhibition at 50 µM: 0
- COMPOUND: "CCOC(=O)c1csc(-c2ccc(OC(C)C)cc2)n1 [Example 106]"
  TARGET_OR_TEST_SYSTEM: "murine ATGL (Mus musculus)"
  UNITS_LABEL: "%"
  inhibition at 50 µM: 21.6
- COMPOUND: "CC(C)OC(=O)c1cccc(-c2ccc(Cl)cc2)n1 [Example 87]"
  TARGET_OR_TEST_SYSTEM: "murine ATGL (Mus musculus)"
  UNITS_LABEL: "%"
  inhibition at 50 µM: 0
- COMPOUND: "CCOC(=O)c1csc(-c2ccc(OCc3ccccc3)cc2)n1 [Example 187]"
  TARGET_OR_TEST_SYSTEM: "murine ATGL (Mus musculus)"
  UNITS_LABEL: "%"
  inhibition at 50 µM: 10.2
- COMPOUND: "CCCCOC(=O)c1cccc(-c2ccc(OCC)cc2)n1 [Example 2]"
  TARGET_OR_TEST_SYSTEM: "murine ATGL (Mus musculus)"
  UNITS_LABEL: "%"
  inhibition at 50 µM: 5.9
- COMPOUND: "C=CCOc1ccc(-c2nc(C(=O)OCC)cs2)cc1 [Example 113]"
  TARGET_OR_TEST_SYSTEM: "murine ATGL (Mus musculus)"
  UNITS_LABEL: "%"
  inhibition at 50 µM: 24.6
- COMPOUND: "C#CC(C)OC(=O)c1cc(OC)cc(-c2ccc(CCC)cc2)n1 (stereo not drawn) [Example 54]"
  TARGET_OR_TEST_SYSTEM: "murine ATGL (Mus musculus)"
  UNITS_LABEL: "%"
  inhibition at 50 µM: 0
- COMPOUND: "CCOC(=O)c1csc(-c2ccc(OC(C)CC)cc2)n1 (stereo not drawn) [Example 112]"
  TARGET_OR_TEST_SYSTEM: "murine ATGL (Mus musculus)"
  UNITS_LABEL: "%"
  inhibition at 50 µM: 1.3
- COMPOUND: "CCCCOc1ccc(-c2nc(C(=O)OCC)cs2)cc1 [Example 109]"
  TARGET_OR_TEST_SYSTEM: "murine ATGL (Mus musculus)"
  UNITS_LABEL: "%"
  inhibition at 50 µM: 0
- COMPOUND: "CCCc1ccc(-c2cccc(C(=O)OC(C)C)n2)cc1 [Example 43]"
  TARGET_OR_TEST_SYSTEM: "murine ATGL (Mus musculus)"
  UNITS_LABEL: "%"
  inhibition at 50 µM: 9.8
- COMPOUND: "CCOc1ccc(-c2nc(C(=O)OC(C)(C)CC)cs2)cc1 [Example 118]"
  TARGET_OR_TEST_SYSTEM: "murine ATGL (Mus musculus)"
  UNITS_LABEL: "%"
  inhibition at 50 µM: 0
- COMPOUND: "CC(C)OC(=O)c1cccc(-c2ccccc2)n1 [Example 24]"
  TARGET_OR_TEST_SYSTEM: "murine ATGL (Mus musculus)"
  UNITS_LABEL: "%"
  inhibition at 50 µM: 38
- COMPOUND: "CC(=O)Oc1ccc(-c2cccc(C(=O)OC(C)C)n2)cc1 [Example 23]"
  TARGET_OR_TEST_SYSTEM: "murine ATGL (Mus musculus)"
  UNITS_LABEL: "%"
  inhibition at 50 µM: 16
- COMPOUND: "CCOC(=O)c1csc(-c2ccc(OCC)cc2)n1 [Example 101]"
  TARGET_OR_TEST_SYSTEM: "murine ATGL (Mus musculus)"
  UNITS_LABEL: "%"
  inhibition at 50 µM: 23.6
- COMPOUND: "CCOC(=O)c1csc(-c2ccc(SCC)cc2)n1 [Example 98]"
  TARGET_OR_TEST_SYSTEM: "murine ATGL (Mus musculus)"
  UNITS_LABEL: "%"
  inhibition at 50 µM: 0
- COMPOUND: "CCOc1ccc(-c2nc(C(=O)OC3CCOC3)cs2)cc1 (stereo not drawn) [Example 130]"
  TARGET_OR_TEST_SYSTEM: "murine ATGL (Mus musculus)"
  UNITS_LABEL: "%"
  inhibition at 50 µM: 13.9
- COMPOUND: "CCOc1ccc(-c2nc(C(=O)OCC=C(C)C)cs2)cc1 [Example 143]"
  TARGET_OR_TEST_SYSTEM: "murine ATGL (Mus musculus)"
  UNITS_LABEL: "%"
  inhibition at 50 µM: 16.8
- COMPOUND: "CC(C)OC(=O)c1cccc(-c2ccc(OC3CCCCO3)cc2)n1 (stereo not drawn) [Example 36]"
  TARGET_OR_TEST_SYSTEM: "murine ATGL (Mus musculus)"
  UNITS_LABEL: "%"
  inhibition at 50 µM: 9.6
- COMPOUND: "CCCOc1ccc(-c2nc(C(=O)OCC)cs2)cc1 [Example 105]"
  TARGET_OR_TEST_SYSTEM: "murine ATGL (Mus musculus)"
  UNITS_LABEL: "%"
  inhibition at 50 µM: 12.2
- COMPOUND: "CCCCCCOc1ccc(-c2cccc(C(=O)OC)n2)cc1 [Example 89]"
  TARGET_OR_TEST_SYSTEM: "murine ATGL (Mus musculus)"
  UNITS_LABEL: "%"
  inhibition at 50 µM: 0

----------
Biological target: murine ATGL (Mus musculus, UniProt Q8BJ56)
Construct: made in house; host or cells: Expi cells (lysate)
Sequence (Q8BJ56 whole entry): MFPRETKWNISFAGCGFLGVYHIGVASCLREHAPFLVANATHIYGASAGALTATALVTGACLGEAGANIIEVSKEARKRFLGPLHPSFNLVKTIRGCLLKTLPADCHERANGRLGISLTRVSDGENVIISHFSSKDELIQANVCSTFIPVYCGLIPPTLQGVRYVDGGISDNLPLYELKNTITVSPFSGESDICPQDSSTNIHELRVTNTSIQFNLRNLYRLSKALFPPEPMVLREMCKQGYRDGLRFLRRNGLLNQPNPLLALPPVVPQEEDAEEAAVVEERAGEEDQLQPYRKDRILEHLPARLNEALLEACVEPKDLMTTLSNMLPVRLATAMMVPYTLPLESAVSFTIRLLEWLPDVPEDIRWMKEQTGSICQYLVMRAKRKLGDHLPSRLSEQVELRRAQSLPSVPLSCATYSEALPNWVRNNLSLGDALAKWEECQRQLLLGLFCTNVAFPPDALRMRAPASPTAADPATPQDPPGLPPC
Experiment: TG hydrolase activity, Expi lysates expressing mouse ATGL + CGI-58, radiolabelled triolein
Format: biochemical
Details: 25 μM; Example 238
MEASURED_ENDPOINT: inhibition at 25 µM (%)

- MOLECULE: "C#C[C@@H](C)OC(=O)c1csc(-c2ccc(OCC)cc2)n1 [Example 211]"
  ENDPOINT_RESULT: 73
- MOLECULE: "CCOc1ccc(-c2nc(C(=O)OCc3ccsc3)cs2)cc1 [Example 215]"
  ENDPOINT_RESULT: 71
- MOLECULE: "CCCCOC(=O)c1csc(-c2ccc(OCC)cc2)n1 [Example 212]"
  ENDPOINT_RESULT: 47
- MOLECULE: "C#C[C@H](C)OC(=O)c1csc(-c2ccc(OCC)cc2)n1 [Example 210]"
  ENDPOINT_RESULT: 47
- MOLECULE: "CCOc1ccc(-c2nc(C(=O)OCc3ccoc3)cs2)cc1 [Example 216]"
  ENDPOINT_RESULT: 70
